Data credit: ChEMBL document CHEMBL5233228

Property: MIC; scope: individual molecules
Test system: Staphylococcus aureus
ASSAY_INFO: Antibacterial activity against Meticillin-Sensitive Staphylococcus aureus assessed as bacterial growth inhibtion incubated for 4 to 6 hrs by broth microdilution method
Format: functional
CONDITION: time 4-6 hrs
The figure you give is taken to be in µM; do not add the unit.

CCC(CC)c1cc([C@H]2CN3CC[C@H]2C[C@@H]3CNCc2ccco2)nc(-c2ccncc2)n1 26.9

Input line: Supply recorded MIC for CCC(CC)c1cc([C@H]2CN3CC[C@H]2C[C@@H]3CN)nc(-c2ccncc2)n1 here.
Output line: 24.6

Input line: Note MIC for the molecule shown: CCC(CC)c1cc([C@H]2CN3CC[C@H]2C[C@@H]3CNCc2ccc(CO)o2)nc(-c2ccncc2)n1
Output line: 50.5

Input line: Indicate its recorded MIC; the molecule in question is Cc1nc(-c2cccs2)cc([C@H]2CN3CC[C@H]2C[C@@H]3CNC(=O)CCCC(=O)O)n1
Output line: 897
